# maps each entry to its Bliss excess
- System: Ca-Ski (Cervical Carcinoma)
- ASSAY_NAME: Bliss excess, mean over the matrix (fraction); higher = more synergy
ATTRIBUTE_MEASURED: Bliss excess

* COc1cccc2c1C(=O)c1c(O)c3c(c(O)c1C2=O)C[C@@](O)(C(=O)CO)C[C@@H]3O[C@H]1C[C@H](N)[C@H](O)[C@H](C)O1 [Doxorubicin] + Cc1cc2ncnn2cc1Nc1ncc2c(n1)n(C1CCOCC1)c(=O)n2C [AZD7648] (first compound max 1 µM, 7x7, partner max 10 µM) | 0.0498
* CC1(C)CCC(CN2CCN(c3ccc(C(=O)NS(=O)(=O)c4ccc(NCC5CCOCC5)c([N+](=O)[O-])c4)c(Oc4cnc5[nH]ccc5c4)c3)CC2)=C(c2ccc(Cl)cc2)C1 [Venetoclax] + CN(C)CCCOc1ccc(-c2ccc3ncc4c(c3c2)n(C2CCOCC2)c(=O)n4C)cn1 [AZD0156] (first compound max 1 µM, 7x7, partner max 1 µM) | 0.0221
* NC1(C(=O)N[C@@H](CCO)c2ccc(Cl)cc2)CCN(c2ncnc3[nH]ccc23)CC1 [Capivasertib] + CC(=O)c1c(C)c2cnc(Nc3ccc(N4CCNCC4)cn3)nc2n(C2CCCC2)c1=O [Palbociclib] (first compound max 10 µM, 7x7, partner max 10 µM) | 0.025
* COc1cccc(OCCCN)c1-c1cc(Nc2cnc(C#N)cn2)n[nH]1 [Prexasertib] + CCc1c2c(nc3ccc(O)cc13)-c1cc3c(c(=O)n1C2)COC(=O)[C@]3(O)CC [SN-38] (first compound max 1 µM, 7x7, partner max 0.3 µM) | 0
* COc1cccc(OCCCN)c1-c1cc(Nc2cnc(C#N)cn2)n[nH]1 [Prexasertib] + O=C(c1cc(Cc2n[nH]c(=O)c3ccccc23)ccc1F)N1CCN(C(=O)C2CC2)CC1 [Olaparib] (first compound max 1 µM, 7x7, partner max 10 µM) | -0.0243
* NC1(C(=O)N[C@@H](CCO)c2ccc(Cl)cc2)CCN(c2ncnc3[nH]ccc23)CC1 [Capivasertib] + COc1nnc2ccc(N3CCC(c4ccc(OCCN5CCN(C)C(=O)[C@H]5C)cc4)CC3)nn12 [AZD5153] (first compound max 10 µM, 7x7, partner max 1 µM) | 0.0046
* CS(=O)(=O)CCNCc1ccc(-c2ccc3ncnc(Nc4ccc(OCc5cccc(F)c5)c(Cl)c4)c3c2)o1 [Lapatinib] + Cn1cnc2c(F)c(Nc3ccc(Br)cc3Cl)c(C(=O)NOCCO)cc21 [Selumetinib] (first compound max 10 µM, 7x7, partner max 10 µM) | -0.0185

====

- Tested on: OE33 (Esophageal Adenocarcinoma)
- ASSAY_NAME: combination Emax (second highest fraction inhibited in the dose matrix, 72 h); higher = more inhibition; extreme values may be limits of the assay
# maps each entry to its combination Emax
ATTRIBUTE_MEASURED: combination Emax

- N#Cc1cnc(Nc2cc(NC[C@H]3CNCCO3)c(C(F)(F)F)cn2)cn1 [SRA737] + C=CCn1c(=O)c2cnc(Nc3ccc(N4CCN(C)CC4)cc3)nc2n1-c1cccc(C(C)(C)O)n1 [AZD1775] (first compound max 10 µM, partner max 1 µM): 0.765
- Cc1cc2ncnn2cc1Nc1ncc2c(n1)n(C1CCOCC1)c(=O)n2C [AZD7648] + C[C@@H]1COCCN1C2=NC(=NC(=C2)C3(CC3)[S@](=N)(=O)C)C4=C5C=CNC5=NC=C4 [AZD6738] (first compound max 10 µM, 7x7, partner max 10 µM): 0.784

====

# maps each entry to its combination Emax
- System: ALL-SIL (T-Lymphoblastic Leukemia)
- ASSAY_NAME: combination Emax (second highest fraction inhibited in the dose matrix, 72 h); higher = more inhibition; extreme values may be limits of the assay
ATTRIBUTE_MEASURED: combination Emax

* CC(=O)c1c(C)c2cnc(Nc3ccc(N4CCNCC4)cn3)nc2n(C2CCCC2)c1=O [Palbociclib] + CC1(C)CCC(CN2CCN(c3ccc(C(=O)NS(=O)(=O)c4ccc(NCC5CCOCC5)c([N+](=O)[O-])c4)c(Oc4cnc5[nH]ccc5c4)c3)CC2)=C(c2ccc(Cl)cc2)C1 [Venetoclax] (first compound max 10 µM, 7x7, partner max 1 µM) | 0.76
* COc1nnc2ccc(N3CCC(c4ccc(OCCN5CCN(C)C(=O)[C@H]5C)cc4)CC3)nn12 [AZD5153] + Cn1cnc2c(F)c(Nc3ccc(Br)cc3Cl)c(C(=O)NOCCO)cc21 [Selumetinib] (first compound max 1 µM, 7x7, partner max 10 µM) | 0.778

====

- Tested on: NCI-H522 (Lung Adenocarcinoma)
- ASSAY_NAME: Bliss excess, mean over the matrix (fraction); higher = more synergy
ATTRIBUTE_MEASURED: Bliss excess

* COc1cccc(OCCCN)c1-c1cc(Nc2cnc(C#N)cn2)n[nH]1 [Prexasertib] + O=C(c1cc(Cc2n[nH]c(=O)c3ccccc23)ccc1F)N1CCN(C(=O)C2CC2)CC1 [Olaparib] (first compound max 1 µM, 7x7, partner max 10 µM) | -0.0491
* Cc1c2c(nn1C)CSCc1cc(n(C)n1)CSc1cc(c3ccccc3c1)OCCCc1c(C(=O)O)n(C)c3c-2c(Cl)ccc13 [AZD5991] + C1CN(CCC1(C(=O)N[C@@H](CCO)C2=CC=C(C=C2)Cl)N)C3=NC=NC4=C3C=CN4 [Capivasertib] (first compound max 1 µM, 7x7, partner max 3 µM) | 0.0415
* COc1cccc2c1C(=O)c1c(O)c3c(c(O)c1C2=O)C[C@@](O)(C(=O)CO)C[C@@H]3O[C@H]1C[C@H](N)[C@H](O)[C@H](C)O1 [Doxorubicin] + Cc1cc2ncnn2cc1Nc1ncc2c(n1)n(C1CCOCC1)c(=O)n2C [AZD7648] (first compound max 1 µM, 7x7, partner max 10 µM) | 0.0072
* CC(=O)Nc1cccc(-n2c(=O)n(C3CC3)c(=O)c3c(Nc4ccc(I)cc4F)n(C)c(=O)c(C)c32)c1 [Trametinib] + Cc1nc(-c2cn3c(n2)-c2ccc(-c4cnn(C(C)(C)C(N)=O)c4)cc2OCC3)n(C(C)C)n1 [Taselisib] (first compound max 1 µM, 7x7, partner max 10 µM) | 0.0504

====

- Tested on: SK-N-AS (Neuroblastoma)
- ASSAY_NAME: Bliss excess, mean over the matrix (fraction); higher = more synergy
So basically: Bliss excess at 0.04 or higher? That is True. Lower than 0.04? That is False.

• N#Cc1cnc(Nc2cc(NC[C@H]3CNCCO3)c(C(F)(F)F)cn2)cn1 [SRA737] + CCc1c2c(nc3ccc(O)cc13)-c1cc3c(c(=O)n1C2)COC(=O)[C@]3(O)CC [SN-38] (first compound max 10 µM, 7x7, partner max 0.3 µM) = False
• Cc1cc2ncnn2cc1Nc1ncc2c(n1)n(C1CCOCC1)c(=O)n2C [AZD7648] + C[C@@H]1COCCN1C2=NC(=NC(=C2)C3(CC3)[S@](=N)(=O)C)C4=C5C=CNC5=NC=C4 [AZD6738] (first compound max 10 µM, 7x7, partner max 10 µM) = False
• CN(C)CCCOc1ccc(-c2ccc3ncc4c(c3c2)n(C2CCOCC2)c(=O)n4C)cn1 [AZD0156] + O=C(c1cc(Cc2n[nH]c(=O)c3ccccc23)ccc1F)N1CCN(C(=O)C2CC2)CC1 [Olaparib] (first compound max 3 µM, partner max 3 µM) = False
• CN(CCO)CC[C@H](CSc1ccccc1)Nc1ccc(S(=O)(=O)NC(=O)c2ccc(N3CCC([C@@H](O)c4ccccc4-c4ccc(Cl)cc4)CC3)cc2)cc1S(=O)(=O)C(F)(F)F [AZD4320] + Cc1cc2ncnn2cc1Nc1ncc2c(n1)n(C1CCOCC1)c(=O)n2C [AZD7648] (first compound max 1 µM, 7x7, partner max 10 µM) = False
• N#Cc1cnc(Nc2cc(NC[C@H]3CNCCO3)c(C(F)(F)F)cn2)cn1 [SRA737] + C=CCn1c(=O)c2cnc(Nc3ccc(N4CCN(C)CC4)cc3)nc2n1-c1cccc(C(C)(C)O)n1 [AZD1775] (first compound max 10 µM, partner max 1 µM) = True
• CC(=O)c1c(C)c2cnc(Nc3ccc(N4CCNCC4)cn3)nc2n(C2CCCC2)c1=O [Palbociclib] + Cn1cnc2c(F)c(Nc3ccc(Br)cc3Cl)c(C(=O)NOCCO)cc21 [Selumetinib] (first compound max 10 µM, 7x7, partner max 10 µM) = True

====

- Test system: SW872 (Other Solid Carcinomas)
- ASSAY_NAME: combination Emax (second highest fraction inhibited in the dose matrix, 72 h); higher = more inhibition; extreme values may be limits of the assay
Grouping by measured combination Emax is done with the following cut points: low: < 0.3; intermediate: ≥ 0.3 and < 0.7; high: ≥ 0.7

- Cc1c2c(nn1C)CSCc1cc(n(C)n1)CSc1cc(c3ccccc3c1)OCCCc1c(C(=O)O)n(C)c3c-2c(Cl)ccc13 [AZD5991] + C[C@@H](Nc1cc(F)cc(F)c1)c1cc(C(=O)N(C)C)cc2c(=O)cc(N3CCOCC3)oc12 [AZD8186] (first compound max 1 µM, 7x7, partner max 3 µM): intermediate
- C[C@@H](c1ccc2nccn2c1)n1nnc2ncc(-c3cnn(C)c3)nc21 [Savolitinib] + Cc1c2c(nn1C)CSCc1cc(n(C)n1)CSc1cc(c3ccccc3c1)OCCCc1c(C(=O)O)n(C)c3c-2c(Cl)ccc13 [AZD5991] (first compound max 1 µM, 7x7, partner max 1 µM): low
- Cc1c2c(nn1C)CSCc1cc(n(C)n1)CSc1cc(c3ccccc3c1)OCCCc1c(C(=O)O)n(C)c3c-2c(Cl)ccc13 [AZD5991] + CC1(C)CCC(CN2CCN(c3ccc(C(=O)NS(=O)(=O)c4ccc(NCC5CCOCC5)c([N+](=O)[O-])c4)c(Oc4cnc5[nH]ccc5c4)c3)CC2)=C(c2ccc(Cl)cc2)C1 [Venetoclax] (first compound max 1 µM, 7x7, partner max 1 µM): intermediate
- COc1cccc(OCCCN)c1-c1cc(Nc2cnc(C#N)cn2)n[nH]1 [Prexasertib] + C=CCn1c(=O)c2cnc(Nc3ccc(N4CCN(C)CC4)cc3)nc2n1-c1cccc(C(C)(C)O)n1 [AZD1775] (first compound max 1 µM, partner max 1 µM): high
- N#Cc1cnc(Nc2cc(NC[C@H]3CNCCO3)c(C(F)(F)F)cn2)cn1 [SRA737] + Nc1ccn([C@@H]2O[C@H](CO)[C@@H](O)C2(F)F)c(=O)n1 [Gemcitabine] (first compound max 10 µM, 7x7, partner max 0.3 µM): high
- Cc1c2c(nn1C)CSCc1cc(n(C)n1)CSc1cc(c3ccccc3c1)OCCCc1c(C(=O)O)n(C)c3c-2c(Cl)ccc13 [AZD5991] + C[C@@H]1COCCN1C2=NC(=NC(=C2)C3(CC3)[S@](=N)(=O)C)C4=C5C=CNC5=NC=C4 [AZD6738] (first compound max 1 µM, 7x7, partner max 10 µM): intermediate
- COc1cc2ncnc(Nc3ccc(F)c(Cl)c3)c2cc1OCCCN1CCOCC1 [Gefitinib] + CC(C)n1c(=O)n(C)c2cnc3cc(F)c(-c4ccc(OCCCN5CCCCC5)nc4)cc3c21 [AZD1390] (first compound max 10 µM, 7x7, partner max 0.3 µM): low
- Cn1cnc2c(F)c(Nc3ccc(Br)cc3Cl)c(C(=O)NOCCO)cc21 [Selumetinib] + C=CCn1c(=O)c2cnc(Nc3ccc(N4CCN(C)CC4)cc3)nc2n1-c1cccc(C(C)(C)O)n1 [AZD1775] (first compound max 10 µM, partner max 1 µM): low

Source listed as the supplement of paper PMC11061612.
